Tested on: NCI-H23
Assay: NCI tumour cell line growth inhibition, 48 h
Active and inactive are the calls of the source. Rule as the data show it: active = GI50 up to about 1.1 µM and inactive = higher.
Log the outcome using a class from active, inactive

CC1/C=C/[C@@]2(C)CCC(C(C)(C)O)C2C(O)C[C@](C)(O)/C=C/C1 (stereo not given in full) : inactive
CN(C)Cc1c[nH]c2ncnc(O)c12 : inactive
Cn1c(=O)c2sc3cc4c(cc3c2c2ccccc21)sc1c(=O)n(C)c2ccccc2c14 : inactive
CC1=CC(=O)C(=CN2C(=O)/C(=C\c3cccnc3)NC2=S)C(=O)O1 : inactive
O=Cc1c2c(cc3c1CC1(C3)Cc3cc4c(c(C=O)c3C1)CCCC4)CCCC2 : inactive

**Q:** # outcome recorded in this test, key = `CN(CCNC(=O)c1cn(C)c2c1ccc1cc(Cl)ccc12)CCNC(=O)c1cn(C)c2c1ccc1cc(Cl)ccc12`
**A:** inactive

**Q:** # outcome recorded in this test, key = C=C(Br)C(C)(Br)CCC(Br)C(C)(C)Br (stereo not given)
**A:** inactive

**Q:** # outcome recorded in this test, key = CN(C)CCN1C(=O)c2cccc3cc([N+](=O)[O-])cc(c23)C1=O [MITONAFIDE]
**A:** active

**Q:** # outcome recorded in this test, key = `CSc1nc2c3ccccc3ccn2c1C(=O)N/N=C/c1ccccc1`
**A:** inactive

**Q:** # outcome recorded in this test, key = `COC(=O)NC(Nc1ccc(Cl)cc1Cl)(C(F)(F)F)C(F)(F)F`
**A:** inactive

* * *

# Lookup of reported GI50 keyed by entry
System: LOX IMVI
Experiment: NCI tumour cell line growth inhibition, 48 h
Calls of active or inactive are those of the source. Cut-off read from the data, not from the text of the source: active = GI50 up to about 1.1 µM and inactive = higher.

Worked cases, answers included:
O=C1c2c(O)cccc2C(C(=O)CCCC(=O)C2c3cccc(O)c3C(=O)c3c(O)cccc32)c2cccc(O)c21 : 0.194 µM (active)
c1cc2c3c(c1)c1cc4c(cc1c[n+]3CC2)OCO4 [ANHYDROLYCORINIUM CHLORIDE] : 25.5 µM (inactive)
COC(=O)NC(Nc1ccc(Cl)cc1Cl)(C(F)(F)F)C(F)(F)F : 40.6 µM (inactive)

**Q:** GI50 lookup needed for `O=C1C(Cl)=C(N2CCC[C@@H]2CO)C(=O)c2c(O)ccc(O)c21` , thanks.
**A:** 1.47 µM (inactive)

* * *

Tested on: SK-OV-3
Assay: NCI tumour cell line growth inhibition, 48 h
Active and inactive are the calls of the source. No stated cut-off is given here; in the data, active = GI50 up to about 1.1 µM and inactive = higher.
Endpoint: GI50

Worked cases, answers included:
COc1ccc(NC(=O)CC(=O)n2nc(-c3ccccc3)c(/N=N/c3ccc(C)cc3)c2-c2ccccc2)cc1 : 16.4 µM (inactive)
CC(NC(=O)c1ccccc1)NC(=O)C(C)C(=O)Nc1ccccc1 (stereo not given) : > 100 µM (inactive)
Cc1ccc([N+](=O)[O-])cc1S(=O)(=O)Nc1ccc(C2=NN(S(=O)(=O)c3cc([N+](=O)[O-])ccc3C)C(c3ccccc3O)C2)cc1 (stereo not given) : 51.8 µM (inactive)
CCN(CC)/N=C\c1c2ccccc2cc2ccccc12 : > 100 µM (inactive)
CCOC(=O)C1C(=O)c2cccc(OC)c2C2COC(=O)N12 (stereo not given) : > 100 µM (inactive)

**Q:** Short answer please: GI50, SK-OV-3, entry `N/C(=N\c1ccccc1)c1ccccc1N`
**A:** > 100 µM (inactive)

**Q:** Short answer please: GI50, SK-OV-3, entry CCCCC/C=C1\CC(CO)(COC(=O)CC(C(C)C)C(C)C)OC1=O (stereo not given)
**A:** 19.1 µM (inactive)

**Q:** Short answer please: GI50, SK-OV-3, entry `CCCc1nc(Cl)nc(Cl)c1Cl`
**A:** 3.01 µM (inactive)

**Q:** Short answer please: GI50, SK-OV-3, entry `Cc1ccc2nc3c(Cl)c(C)c(=O)cc-3sc2c1`
**A:** > 10 µM (inactive)

**Q:** Short answer please: GI50, SK-OV-3, entry NC(CSC1c2ccccc2-c2ccccc21)C(=O)O (stereo not given)
**A:** > 100 µM (inactive)
